- assayTarget: T1, extracellular domain (ECD) of human αKlotho, amino acids E34-S981 with C-terminal 6-His tag (R&D Systems … (human, UniProt Q9UEF7 34-981))
- T1 construct: range 34-981; also called αKlotho (aa34-981); target antigen
- T1 sequence: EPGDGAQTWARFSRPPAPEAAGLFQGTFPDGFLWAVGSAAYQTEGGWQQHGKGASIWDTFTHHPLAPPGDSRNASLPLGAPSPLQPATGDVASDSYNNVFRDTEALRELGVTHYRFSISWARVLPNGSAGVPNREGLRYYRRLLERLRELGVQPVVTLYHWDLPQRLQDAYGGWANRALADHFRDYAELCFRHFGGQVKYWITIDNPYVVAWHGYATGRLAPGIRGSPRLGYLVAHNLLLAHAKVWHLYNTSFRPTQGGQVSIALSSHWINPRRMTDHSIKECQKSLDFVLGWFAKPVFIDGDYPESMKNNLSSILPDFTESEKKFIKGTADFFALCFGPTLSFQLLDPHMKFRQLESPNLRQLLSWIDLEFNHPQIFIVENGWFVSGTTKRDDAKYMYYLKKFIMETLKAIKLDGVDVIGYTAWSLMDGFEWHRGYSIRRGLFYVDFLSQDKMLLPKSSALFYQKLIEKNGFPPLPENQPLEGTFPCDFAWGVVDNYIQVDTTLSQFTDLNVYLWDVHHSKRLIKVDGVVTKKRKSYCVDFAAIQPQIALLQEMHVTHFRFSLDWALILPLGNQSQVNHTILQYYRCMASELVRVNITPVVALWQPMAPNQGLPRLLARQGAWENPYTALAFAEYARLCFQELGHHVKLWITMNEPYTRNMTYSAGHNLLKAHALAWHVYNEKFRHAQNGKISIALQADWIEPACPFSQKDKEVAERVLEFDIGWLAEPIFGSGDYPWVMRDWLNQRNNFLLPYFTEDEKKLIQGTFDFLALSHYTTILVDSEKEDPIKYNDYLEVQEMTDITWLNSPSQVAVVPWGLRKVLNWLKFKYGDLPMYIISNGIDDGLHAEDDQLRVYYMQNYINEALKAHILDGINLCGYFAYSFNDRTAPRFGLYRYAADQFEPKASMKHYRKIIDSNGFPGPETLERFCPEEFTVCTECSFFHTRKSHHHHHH
- testProtocol: SPR, Fab captured by anti-H+L IgG, αKlotho injected at 50 to 6.25 ug/ml, Langmuir fit [continued]
observationType: koff (s⁻¹)
Number only, in s⁻¹; omit the unit.

Reported koff of anti-αKlotho Fab clone 4813 (Fab, V domains shown, Fab (also as Fab-phage); FLAG tag on light chain; also called sb182) VH: EVQLVESGGGLVQPGGSLRLSCAASGFNLYSSSIHWVRQAPGKGLEWVASISPYSGYTYYADSVKGRFTISADTSKNTAYLQMNSLRAEDTAVYYCARYYSGWYSPAWWYGIDYWGQGTLVTVSS VL: DIQMTQSPSSLSASVGDRVTITCRASQSVSSAVAWYQQKPGKAPKLLIYSASSLYSGVPSRFSGSRSGTDFTLTISSLQPEDFATYYCQQAAWGGAPITFGQGTKVEIKR : 0.00164

Origin of the recorded values: patent US20190041402A1
